Target: human calcium receptor (Homo sapiens, UniProt P41180)
Sequence (P41180 20-1078): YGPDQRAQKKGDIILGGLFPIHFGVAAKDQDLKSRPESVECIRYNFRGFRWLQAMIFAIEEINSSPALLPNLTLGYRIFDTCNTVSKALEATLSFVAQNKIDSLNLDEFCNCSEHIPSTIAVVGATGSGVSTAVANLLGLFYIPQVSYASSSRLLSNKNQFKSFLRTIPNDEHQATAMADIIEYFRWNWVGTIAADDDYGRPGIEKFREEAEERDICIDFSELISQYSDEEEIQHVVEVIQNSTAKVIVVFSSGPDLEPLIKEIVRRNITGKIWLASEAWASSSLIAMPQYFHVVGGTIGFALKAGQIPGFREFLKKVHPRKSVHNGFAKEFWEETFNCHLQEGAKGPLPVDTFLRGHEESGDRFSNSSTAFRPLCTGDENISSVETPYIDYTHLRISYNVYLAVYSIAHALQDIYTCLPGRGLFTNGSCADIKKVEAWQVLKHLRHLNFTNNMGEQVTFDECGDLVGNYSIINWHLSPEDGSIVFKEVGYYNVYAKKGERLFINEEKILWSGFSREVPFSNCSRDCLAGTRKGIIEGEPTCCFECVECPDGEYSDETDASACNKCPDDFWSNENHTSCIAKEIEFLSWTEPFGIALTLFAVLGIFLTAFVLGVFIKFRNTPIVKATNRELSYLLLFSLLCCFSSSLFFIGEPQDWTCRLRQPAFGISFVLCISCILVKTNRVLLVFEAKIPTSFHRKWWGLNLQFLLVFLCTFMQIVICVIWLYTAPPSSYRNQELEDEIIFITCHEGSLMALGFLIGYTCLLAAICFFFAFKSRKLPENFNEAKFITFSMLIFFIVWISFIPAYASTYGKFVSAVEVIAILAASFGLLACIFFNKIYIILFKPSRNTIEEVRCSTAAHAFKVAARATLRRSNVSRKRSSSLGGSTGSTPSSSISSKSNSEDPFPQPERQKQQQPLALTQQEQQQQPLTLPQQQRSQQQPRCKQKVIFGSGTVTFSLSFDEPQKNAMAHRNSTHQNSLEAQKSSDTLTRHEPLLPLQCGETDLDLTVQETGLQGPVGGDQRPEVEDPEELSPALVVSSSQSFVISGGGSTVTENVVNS
Assay: Evaluation of antagonistic action on calcium receptor using reporter gene (luciferase)
Settings: transformed rat adrenal derived cells, 5 mM calcium chloride, culture 4 hrs, luciferase activity; read-out: Reporter gene assay (IC50, concentration showing 50% inhibitory rate)
PROPERTY_NAME: IC50 (nM)

Recorded results for 3 molecules are shown here.
// map CC(OC[C@H](O)CNC(C)(C)Cc1ccc2ccccc2c1)c1ccccc1Sc1cccc(C(=O)O)c1 (some centres unmarked) to recorded IC50 (system: human calcium receptor (Homo sapiens, UniProt P41180)) 27

// map CC(OC[C@H](O)CNC(C)(C)Cc1ccc2ccccc2c1)c1ccccc1C=Cc1ccc(C(=O)O)cc1 (some centres unmarked) to recorded IC50 (system: human calcium receptor (Homo sapiens, UniProt P41180)) 16

// map CC(OC[C@H](O)CNC(C)(C)Cc1ccc2ccccc2c1)c1ccccc1Cc1ccc(C(=O)O)cc1 (some centres unmarked) to recorded IC50 (system: human calcium receptor (Homo sapiens, UniProt P41180)) 30

[a] C[C@@H](OC[C@H](O)CNC(C)(C)Cc1ccc2ccccc2c1)c1ccccc1-c1ccc(C(=O)O)c(F)c1
[b] COc1cc(-c2ccccc2[C@@H](C)OC[C@H](O)CNC(C)(C)Cc2ccc(Cl)cc2F)ccc1C(=O)O
Lab note: record which item had the higher IC50, a or b . Record your answer as the label of the chosen record. b
(b: 26 nM, a: 16 nM)
